Organism: Oryctolagus cuniculus
Conditions: Plasma, 10 nM
Description: Inhibition of Lp-PLA2 in rabbit plasma using [3H]PAF as substrate at 10 nM incubated for 5 mins prior to substrate addition measured after 10 mins by liquid scintillation counting analysis relative to control
observed_property: inhibition (%)

COCCNCc1nnc(Cn2c(SCc3ccc(F)cc3)nc(=O)c3c2CCC3)n1Cc1ccc(-c2ccc(C(F)(F)F)cc2)cc1	13
CCN(CCN(C)C)Cc1nnc(Cn2c(SCc3ccc(F)cc3)nc(=O)c3c2CCC3)n1Cc1ccc(-c2ccc(C(F)(F)F)cc2)cc1	75
O=c1nc(SCc2ccc(F)cc2)n(Cc2nnc(CNCCN3CCOCC3)n2Cc2ccc(-c3ccc(C(F)(F)F)cc3)cc2)c2c1CCC2	32
CN(CCN1CCCCC1)Cc1nnc(Cn2c(SCc3ccc(F)cc3)nc(=O)c3c2CCC3)n1Cc1ccc(-c2ccc(C(F)(F)F)cc2)cc1	75
CCN(CC)CCNCc1nnc(Cn2c(SCc3ccc(F)cc3)nc(=O)c3c2CCC3)n1Cc1ccc(-c2ccc(C(F)(F)F)cc2)cc1	35
O=c1nc(SCc2ccc(F)cc2)n(Cc2nnc(CCCN3CCCC3)n2Cc2ccc(-c3ccc(C(F)(F)F)cc3)cc2)c2c1CCC2	75

1 = O=c1nc(SCc2ccc(F)cc2)n(Cc2nnc(CNCCN3CCCC3)n2Cc2ccc(-c3ccc(C(F)(F)F)cc3)cc2)c2c1CCC2
2 = CN(CC(=O)O)Cc1nnc(Cn2c(SCc3ccc(F)cc3)nc(=O)c3c2CCC3)n1Cc1ccc(-c2ccc(C(F)(F)F)cc2)cc1
3 = CCN(CC)CCN(Cc1ccc(-c2ccc(C(F)(F)F)cc2)cc1)C(=O)Cn1c(SCc2ccc(F)cc2)nc(=O)c2c1CCC2
## Input # rank_down: sort by inhibition, max first Response format: the labels, sorted as the prompt asks.
## Output 3, 1, 2
